- targetOfAssay: human recombinant 5-HT6 receptor (Homo sapiens)
- Sequence (P50406 whole entry): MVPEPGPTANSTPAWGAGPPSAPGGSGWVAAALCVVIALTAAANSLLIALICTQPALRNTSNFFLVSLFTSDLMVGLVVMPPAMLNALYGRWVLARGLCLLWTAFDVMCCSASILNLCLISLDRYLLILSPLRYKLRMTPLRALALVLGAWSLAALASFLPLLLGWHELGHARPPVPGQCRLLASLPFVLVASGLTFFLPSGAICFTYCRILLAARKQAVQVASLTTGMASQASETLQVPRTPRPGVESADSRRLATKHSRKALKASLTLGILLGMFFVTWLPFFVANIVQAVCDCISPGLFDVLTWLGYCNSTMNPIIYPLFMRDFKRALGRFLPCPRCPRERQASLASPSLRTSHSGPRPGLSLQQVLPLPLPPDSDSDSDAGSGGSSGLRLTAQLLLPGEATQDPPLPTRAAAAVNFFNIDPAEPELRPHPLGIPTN
- assay: Affinity for 5-HT6 receptor binding sites (competitive radioligand binding, [3H]LSD)
- details: membranes of HEK-293 with h5-HT6, * = tested as hydrochloride salt
quantityName: pKi
pKi is defined as minus the log10 of a concentration measured in mol/L.

Previously resolved entries follow.
> print(dat)
                                   molecule  datavalue
1  FC1(F)CCN(c2nc3c(c(-c4cnc5ccccc5c4)n2)CCNCC3)CC1 [Example 103]       7.38
2  COc1ccc(-c2nc(N3[C@H](C)CCC[C@@H]3C)nc3c2CCNCC3)cc1 [Example 82]       7.46
3  COc1ccc(-c2nc(N3[C@H](C)CCC[C@@H]3C)nc3c2CCNCC3)cc1F [Example 89]       7.46
4  Cc1ccc(-c2nc(N3[C@H](C)CCC[C@@H]3C)nc3c2CCNCC3)cn1 [Example 86]       7.10
5  CCN(CC)c1nc2c(c(-c3ccc(OC)cc3)n1)CCNC2 [Example 28]       5.82
6  Cc1ccc(-c2nc(N3[C@H](C)CCC[C@@H]3C)nc3c2CCNCC3)cc1F [Example 85]       7.51

Attention now shifts to the item below.
Which pKi value belongs to C[C@@H]1CCC[C@H](C)N1c1nc2c(c(-c3ccc(Cl)cc3)n1)CCNCC2 [Example 70] ?
7.72
